These entries and their values trace back to ChEMBL document CHEMBL4706503.

pIC50: −log10 of the molar value.
Assay read-out pIC50; system under study: Cytochrome P450 2D6 (Homo sapiens).
Sequence (P10635 whole entry): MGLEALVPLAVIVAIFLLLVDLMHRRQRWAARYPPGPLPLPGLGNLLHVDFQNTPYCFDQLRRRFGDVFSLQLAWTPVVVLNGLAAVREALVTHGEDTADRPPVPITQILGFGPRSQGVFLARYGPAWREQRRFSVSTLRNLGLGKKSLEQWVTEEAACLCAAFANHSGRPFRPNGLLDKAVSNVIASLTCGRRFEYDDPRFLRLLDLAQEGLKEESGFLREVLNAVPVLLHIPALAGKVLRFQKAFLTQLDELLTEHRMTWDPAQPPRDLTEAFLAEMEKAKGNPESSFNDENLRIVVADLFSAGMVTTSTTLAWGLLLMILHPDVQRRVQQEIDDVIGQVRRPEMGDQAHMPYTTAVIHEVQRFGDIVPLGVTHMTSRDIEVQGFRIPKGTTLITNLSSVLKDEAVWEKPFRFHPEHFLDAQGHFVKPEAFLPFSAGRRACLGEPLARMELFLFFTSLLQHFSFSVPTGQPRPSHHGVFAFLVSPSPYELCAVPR

Known pIC50 results, listed for orientation:
# compound, result
measured = [
    ("CNC(=O)c1ccccc1S(=O)(=O)NCC(=O)Nc1ccc(O)cc1", "< 5.00"),
    ("O=C(CNS(=O)(=O)c1ccccc1C(=O)NCCc1ccc(O)c(O)c1)Nc1ccc(O)cc1", "< 5.00"),
]

q: Please list pIC50 recorded for the compound CC(=O)Nc1ccc(O)cc1 [ACETAMINOPHEN]
a: < 5.00

###

- method.summary: Hepatotoxicity in CD1 mouse assessed as increase in serum alanine aminotransferase level at 600 mg/kg, po measured after 12 hrs
- Assay type: toxicity, organism-based
- measurement.context: in vivo
recorded.metric: Activity

Known Activity results, listed for orientation:
# compound, recorded.metric, result
records = [
    ("COc1ccc(CNC(=O)c2ccccc2S(=O)(=O)NCC(=O)Nc2ccc(O)cc2)cc1", "Activity", "Non-Toxic"),
    ("O=C(CNS(=O)(=O)c1ccccc1C(=O)NCc1cccc(Cl)c1)Nc1ccc(O)cc1", "Activity", "Non-Toxic"),
    ("CN(C)C(=O)c1ccccc1S(=O)(=O)NCC(=O)Nc1ccc(O)cc1", "Activity", "Non-Toxic"),
    ("CNC(=O)c1ccccc1S(=O)(=O)NCC(=O)Nc1ccc(O)cc1", "Activity", "Non-Toxic"),
]

Consider the additional compound presented here.
q: Please list Activity recorded for the compound CC(=O)Nc1ccc(O)cc1 [ACETAMINOPHEN]
a: Toxic

###

- experimental.system: UniProtKB P08684
recorded.metric: IC50 (µM)
Numeric answer only, unit µM assumed.

q: Write down measured IC50 (UniProtKB P08684) for this molecule. `O=C(CNS(=O)(=O)c1ccccc1C(=O)NCCc1ccc(O)c(O)c1)Nc1ccc(O)cc1`
a: 4.82

###

- Tested on: Hepatocyte
- method.summary: Hepatotoxicity in primary human hepatocytes assessed as increase in lactate dehydrogenase release at 500 to 1000 uM measured after 3 to 12 hrs by fluorescence based analysis
recorded.metric: Activity

Known Activity results, listed for orientation:
# molecule, result
rows = [
    ("O=C(CNS(=O)(=O)c1ccccc1C(=O)NCCc1ccccc1)Nc1ccc(O)cc1", "Toxic"),
    ("COc1ccc(CNC(=O)c2ccccc2S(=O)(=O)NCC(=O)Nc2ccc(O)cc2)cc1", "Toxic"),
    ("CCCCNC(=O)c1ccccc1S(=O)(=O)NCC(=O)Nc1ccc(O)cc1", "Toxic"),
    ("Cc1ccc(CNC(=O)c2ccccc2S(=O)(=O)NCC(=O)Nc2ccc(O)cc2)cc1", "Toxic"),
    ("O=C(CNS(=O)(=O)c1ccccc1C(=O)NCCN1CCCC1)Nc1ccc(O)cc1", "Non-Toxic"),
    ("O=C(CNS(=O)(=O)c1ccccc1C(=O)NCc1ccc([N+](=O)[O-])cc1)Nc1ccc(O)cc1", "Non-Toxic"),
    ("O=C(CNS(=O)(=O)c1ccccc1C(=O)NC1CCCC1)Nc1ccc(O)cc1", "Toxic"),
    ("CN(C)C(=O)c1ccccc1S(=O)(=O)NCC(=O)Nc1ccc(O)cc1", "Toxic"),
]

Consider the additional compound presented here.
q: Please list Activity recorded for the compound `O=C(CNS(=O)(=O)c1ccccc1C(=O)NCCc1ccc(O)c(O)c1)Nc1ccc(O)cc1`
a: Non-Toxic

###

Each entry below carries its reported survival at 48 h.
- method.summary: Toxicity in CD1 mouse assessed as animal survival rate at 600 mg/kg, ip measured for every 4 hrs upto 48 hrs by Kaplan-Meier plot analysis
- Assay type: organism-based
- measurement.context: in vivo
Numeric answer only, unit % assumed.

# molecule, survival at 48 h [%]
records = [
    ("CNC(=O)c1ccccc1S(=O)(=O)NCC(=O)Nc1ccc(O)cc1", 100),
]

Consider the additional compound presented here.
q: Please list survival at 48 h recorded for the compound `O=C(CNS(=O)(=O)c1ccccc1C(=O)NCCc1ccc(O)c(O)c1)Nc1ccc(O)cc1`
a: 100

###

- experimental.system: CYP3A4 (Homo sapiens, UniProt P08684)
- Sequence (P08684 whole entry): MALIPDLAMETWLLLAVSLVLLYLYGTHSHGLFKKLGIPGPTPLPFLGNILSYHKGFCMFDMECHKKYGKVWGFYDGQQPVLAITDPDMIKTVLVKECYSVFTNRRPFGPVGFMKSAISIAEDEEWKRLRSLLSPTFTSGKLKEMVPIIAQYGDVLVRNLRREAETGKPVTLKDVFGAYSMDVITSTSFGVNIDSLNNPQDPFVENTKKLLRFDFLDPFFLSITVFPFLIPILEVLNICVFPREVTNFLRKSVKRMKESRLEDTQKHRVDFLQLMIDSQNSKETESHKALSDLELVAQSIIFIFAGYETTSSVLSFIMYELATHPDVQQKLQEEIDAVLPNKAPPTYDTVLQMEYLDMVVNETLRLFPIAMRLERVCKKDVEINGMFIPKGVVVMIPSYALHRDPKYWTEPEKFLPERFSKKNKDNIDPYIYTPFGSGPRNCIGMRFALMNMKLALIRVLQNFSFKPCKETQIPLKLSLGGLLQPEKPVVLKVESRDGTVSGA
- method.summary: Inhibition of CYP3A4 (unknown origin) in baculosomes preincubated for 20 mins followed by addition of CYP enzyme-specific substrate and NADP+ and measured after 30 mins by fluorescence based analysis relative to control
recorded.metric: inhibition at 0.5 h (%)
Numeric answer only, unit % assumed.

q: Please list inhibition at 0.5 h recorded for the compound `O=C(CNS(=O)(=O)c1ccccc1C(=O)NCCc1ccc(O)c(O)c1)Nc1ccc(O)cc1`
a: 25

###

- System: Hepatocyte
- method.summary: Hepatotoxicity in primary human hepatocytes assessed as increase in lactate dehydrogenase release at 500 to 1000 uM measured after 3 to 12 hrs by fluorescence based analysis
recorded.metric: Activity

Known Activity results, listed for orientation:
# molecule, Activity
records = [
    ("O=C(CNS(=O)(=O)c1ccccc1C(=O)NCc1ccc(Cl)c(Cl)c1)Nc1ccc(O)cc1", "Non-Toxic"),
    ("O=C(CNS(=O)(=O)c1ccccc1C(=O)N1CCOCC1)Nc1ccc(O)cc1", "Non-Toxic"),
    ("CC(C)CNC(=O)c1ccccc1S(=O)(=O)NCC(=O)Nc1ccc(O)cc1", "Toxic"),
    ("NC(=O)c1ccccc1S(=O)(=O)NCC(=O)Nc1ccc(O)cc1", "Toxic"),
    ("O=C(CNS(=O)(=O)c1ccccc1C(=O)N1CCN(Cc2ccccc2)CC1)Nc1ccc(O)cc1", "Toxic"),
]

Consider the additional compound presented here.
q: Please list Activity recorded for the compound `O=C(CNS(=O)(=O)c1ccccc1C(=O)NCc1ccccc1)Nc1ccc(O)cc1`
a: Toxic

###

- Tested on: Hepatocyte
- method.summary: Hepatotoxicity in primary human hepatocytes assessed as increase in lactate dehydrogenase release at 500 to 1000 uM measured after 3 to 12 hrs by fluorescence based analysis

# molecule, experimental.system, Activity
records = [
    ("O=C(CNS(=O)(=O)c1ccccc1C(=O)NCc1ccccn1)Nc1ccc(O)cc1", "Hepatocyte", "Toxic"),
    ("CC(C)NC(=O)c1ccccc1S(=O)(=O)NCC(=O)Nc1ccc(O)cc1", "Hepatocyte", "Toxic"),
    ("O=C(CNS(=O)(=O)c1ccccc1C(=O)NCc1cccc(Cl)c1)Nc1ccc(O)cc1", "Hepatocyte", "Toxic"),
]
